test-name: Pharmacokinetic study in rats (Test Example 4), intragastric administration
Assay type: in vivo
condition-notes: Sprague-Dawley, rat, plasma; SD rats, male; Compound 5 PO 12.9 mg/kg; molecule detected Compound 5; mean value
property-label: Cmax (ng/mL)
Write the answer as a number in ng/mL, unit excluded.

Task: Specify measured Cmax for Cc1ccccc1C(=O)Nc1ccc(C(=O)N2CCCC(OCOP(=O)(O)OCC[N+](C)(C)C)c3cc(Cl)ccc32)c(C)c1 (stereo not shown) .
Result: 44.4

----------
test-name: Pharmacokinetic study in beagles (Test Example 5), intravenous drip and intragastric administration
Assay type: in vivo
condition-notes: beagle, dog, plasma, po, Compound 5 2.7 mg/kg p.o., molecule detected Compound 5, mean value
property-label: AUC(0-t) (ng·h/mL)
Write the answer as a number in ng·h/mL, unit excluded.

Task: Specify measured AUC(0-t) for Cc1ccccc1C(=O)Nc1ccc(C(=O)N2CCCC(OCOP(=O)(O)OCC[N+](C)(C)C)c3cc(Cl)ccc32)c(C)c1 (stereo not shown) .
Result: 122

----------
test-name: Pharmacokinetic study in rats (Test Example 4), intragastric administration
Type: in vivo
condition-notes: Sprague-Dawley, rat, plasma; SD rats, female; Compound 5 PO 12.9 mg/kg; molecule detected Compound 5; mean value
property-label: AUC(0-t) (ng·h/mL)
Write the answer as a number in ng·h/mL, unit excluded.

Task: Specify measured AUC(0-t) for Cc1ccccc1C(=O)Nc1ccc(C(=O)N2CCCC(OCOP(=O)(O)OCC[N+](C)(C)C)c3cc(Cl)ccc32)c(C)c1 (stereo not shown) .
Result: 58.4

----------
test-name: Pharmacokinetic study in rats (Test Example 3), intravenous injection
Format: in vivo
condition-notes: both sexes, Sprague-Dawley, rat, plasma, iv; SD rats; Compound M i.v. 3.91 mg/kg; molecule detected Compound M; mean value
Method: 1.1.1. Experimental Animals: SD Rats, Male and Female, Weighing about 220 g. Housing Environment: SPF. […] Blood was collected at various time points after intravenous injection (before the administration and 0.0833, 0.25, 0.5, 1, 2, 4, 8 and 24 h after the administration). […] Plasma samples were separated and cryopreserved at −70° C., and the compound and tolvaptan levels were determined by LC-MS/MS.
property-label: Tmax (min)
Write the answer as a number in min, unit excluded.

Task: Specify measured Tmax for Cc1ccccc1C(=O)Nc1ccc(C(=O)N2CCCC(OC(=O)[C@@H](N)C(C)C)c3cc(Cl)ccc32)c(C)c1 (stereo partly shown) [Compound M] .
Result: 8.34

----------
test-name: Pharmacokinetic study in rats (Test Example 4), intragastric administration
Assay type: in vivo
condition-notes: Sprague-Dawley, rat, plasma; SD rats, female; Tolvaptan PO 9 mg/kg; molecule detected Tolvaptan; mean value
property-label: Cmax (ng/mL)
Write the answer as a number in ng/mL, unit excluded.

Task: Specify measured Cmax for Cc1ccccc1C(=O)Nc1ccc(C(=O)N2CCCC(O)c3cc(Cl)ccc32)c(C)c1 (stereo not shown) [Tolvaptan, reference compound] .
Result: 412

----------
test-name: Pharmacokinetic study in dogs (Test Example 1), intragastric administration
Type: in vivo
condition-notes: beagle, dog, plasma; beagles; Compound 5 administered PO 4.3 mg/kg; molecule detected Compound 5; mean value
property-label: AUC(0-t) (ng·h/mL)
Write the answer as a number in ng·h/mL, unit excluded.

Task: Specify measured AUC(0-t) for Cc1ccccc1C(=O)Nc1ccc(C(=O)N2CCCC(OCOP(=O)(O)OCC[N+](C)(C)C)c3cc(Cl)ccc32)c(C)c1 (stereo not shown) [Compound 5] .
Result: 156
